Here, each record is paired with measured ε (molar extinction coefficient) data.
ASSAY_METHOD_TEXT: UV spectra of compounds in solution (filtering parameters)
Type: physicochemical
CONDITIONS_USED: MeOH
I only need the number, thanks.

Some entries whose results are on file:
NS(=O)(=O)c1ccc2nc(-c3cccs3)sc2c1 [Compound 10c]    9704.99
O=C(O)c1ccc2nc(-c3cccs3)sc2c1 [Compound 10b]    21268.66
NS(=O)(=O)c1ccc2nc(-c3ccco3)sc2c1 [Compound 9c]    13805.97
c1csc(-c2nc3ccccc3s2)c1 [Compound 10a, 2-(Thiophen-2-Yl)benzothiazole]    9706.26

In: Recorded ε (molar extinction coefficient) of c1c[nH]c(-c2nc3ccccc3s2)c1 [Compound 8a, 2-(1H-Pyrrol-2-Yl)benzothiazole] , please.
Out: 23692.31

====

ASSAY_METHOD_TEXT: Filtering parameters (in vitro SPF, UVAPF, UVA/UVB, critical wavelength) of W/O formulations on PMMA plates
Assay type: physicochemical
CONDITIONS_USED: 2% in W/O formulation
READOUT: λc (nm)
All answers are understood in nm, so give the number only.

Study these solved cases before continuing.
O=S(=O)(O)c1ccc2[nH]c(-c3ccccc3)nc2c1 [PBSA, reference compound]    321
c1c[nH]c(-c2nc3ccccc3s2)c1    353
c1coc(-c2nc3ccccc3s2)c1    341
c1csc(-c2nc3ccccc3s2)c1 [Compound 10a, 2-(Thiophen-2-Yl)benzothiazole]    347

# ---- query molecule ----
In: Give the measured λc of c1c[nH]c(-c2nc3ccccc3[nH]2)c1 [Lead 10, reference compound] .
Out: 357

====

ASSAY_METHOD_TEXT: Filtering parameters (in vitro SPF, UVAPF, UVA/UVB, critical wavelength) of W/O formulations on PMMA plates
Type: physicochemical
CONDITIONS_USED: 3% in W/O formulation
READOUT: UVAPF

Consider the following illustrative entries.
c1coc(-c2nc3ccccc3s2)c1    1.50
c1csc(-c2nc3ccccc3s2)c1 [Compound 10a, 2-(Thiophen-2-Yl)benzothiazole]    2.02
c1c[nH]c(-c2nc3ccccc3[nH]2)c1 [Lead 10, reference compound]    1.54
c1c[nH]c(-c2nc3ccccc3s2)c1    2.88

Next compound, UVAPF to be filled in.
In: // query UVAPF value for entry O=S(=O)(O)c1ccc2[nH]c(-c3ccccc3)nc2c1 [PBSA, reference compound]
Out: 1.02

====

Below, each of the compounds is paired with its reported UVA/UVB value.
ASSAY_METHOD_TEXT: Filtering parameters (in vitro SPF, UVAPF, UVA/UVB, critical wavelength) of W/O formulations on PMMA plates
Type: physicochemical
CONDITIONS_USED: 1% in W/O formulation
Procedure: The synthesized derivatives were incorporated at increasing concentrations (1%, 2% and 3%) in a topical W/O cosmetic standard formulation, to evaluate the filtering parameters, having the following ingredients composition. […] Briefly, the protocol is to finger spread 32.5 mg of each formulation onto 25 cm2 PMMA plates. […] UV transmittance data were recorded in the range 290–400 nm using a UV-VIS spectrophotometer. […]
Number only, no unit.

c1csc(-c2nc3ccccc3s2)c1 [Compound 10a, 2-(Thiophen-2-Yl)benzothiazole]    0.69
c1c[nH]c(-c2nc3ccccc3s2)c1 [Compound 8a, 2-(1H-Pyrrol-2-Yl)benzothiazole]    1.17
c1c[nH]c(-c2nc3ccccc3[nH]2)c1 [Lead 10, reference compound]    0.70

Here's the next entry for you.
In: Any idea what UVA/UVB was measured for c1coc(-c2nc3ccccc3s2)c1 [Compound 9a, 2-(Furan-2-Yl)benzothiazole] ?
Out: 0.34
